# Tested System: recombinant human PKA (Homo sapiens, UniProt P17612)
# Construct: recombinant human PKA (residues 1-351, N-terminal His-tag); His-tag (N); purchased Invitrogen, Karlsruhe, Germany
# Assay Method Text: Determination of Protein Kinase A inhibition (selectivity)
# Format: biochemical
# Measurement Context: from IC50 values
Experimental Endpoint: Selectivity against PKA

CC[C@]1(C(N)C2CC2)CC[C@@H](Oc2cc3cc[nH]c(=O)c3cc2Cl)CC1 (some centres unmarked) [Example 70]
>1000 fold
C[C@]1(C(N)C2CC2)CC[C@@H](Oc2cc3cc[nH]c(=O)c3cc2Cl)CC1 (some centres unmarked) [Example 69]
>1000 fold
CC[C@]1(C(C)N)CC[C@@H](Oc2cc3cc[nH]c(=O)c3cc2F)CC1 (some centres unmarked) [Example 78]
>300 fold
NC(C1CC1)[C@]1(CC2CCOCC2)CC[C@H](Oc2cc3cc[nH]c(=O)c3cc2Cl)CC1 (some centres unmarked) [Example 68]
>1000 fold
NC(C1CC1)C1(CC2CC2)CCC(Oc2cc3cc[nH]c(=O)c3cc2Cl)CC1 (single isomer, unassigned) [Example 17]
>10 fold
CC[C@]1(C(N)CF)CC[C@@H](Oc2cc3cc[nH]c(=O)c3cc2Cl)CC1 (some centres unmarked) [Example 95]
>1000 fold

Data request: Tell me Selectivity against PKA reported for CCC(N)[C@]1(CC)CC[C@H](Oc2cc3cc[nH]c(=O)c3cc2Cl)CC1 (some centres unmarked) [Example 34]
Data returned: >1000 fold

Data request: Tell me Selectivity against PKA reported for CCC(N)[C@]1(CC)CC[C@H](Oc2c(C)cc3c(=O)[nH]ccc3c2C)CC1 (some centres unmarked) [Example 54]
Data returned: >10 fold
